# Lookup of reported IC50 keyed by entry
TEST_METHOD_NOTES: Cytotoxicity against mouse EAC cells in hypoxic condition by trypan blue exclusion assay
Assay type: functional, cell-based
SETTINGS: Ehrlich
Dear colleague, please return just the value in µg/mL, with no unit written.

CC(=O)N(C(C)=O)c1c(C#N)[n+]([O-])c2cc(Cl)ccc2[n+]1[O-] | 2.5

Output IC50 of N#Cc1c(N)[n+]([O-])c2ccc(Cl)cc2[n+]1[O-]
13.5

###

TEST_METHOD_NOTES: Cytotoxicity against mouse EAC cells in hypoxic condition by trypan blue exclusion assay
Type: functional, cell-based
SETTINGS: Ehrlich
MEASURED_ENDPOINT: IC50 (µg/mL)
Dear colleague, please return just the value in µg/mL, with no unit written.

CCOc1ccc(/N=C/c2c(-c3ccccc3)[n+]([O-])c3ccc(OC)cc3[n+]2[O-])cc1 | 70
COc1ccc2c(c1)[n+]([O-])c(C(=O)N=[N+]=[N-])c(C)[n+]2[O-] | 12.5

// moving on: another record for IC50
Output IC50 of COc1ccc(NC(=O)Nc2c(C)[n+]([O-])c3ccc(Cl)cc3[n+]2[O-])cc1
10

###

Tested on: HepG2
TEST_METHOD_NOTES: Growth inhibition of human HepG2 cells after 48 hrs by SRB assay
Type: functional, cell-based
SETTINGS: HepG2, 48 h
MEASURED_ENDPOINT: IC50 (µg/mL)
Dear colleague, please return just the value in µg/mL, with no unit written.

Known IC50 results, listed for orientation:
COc1ccc2c(c1)[n+]([O-])c(C(=O)N=[N+]=[N-])c(C)[n+]2[O-] | 3.61
CCOc1ccc(/N=C/c2c(-c3ccccc3)[n+]([O-])c3ccc(OC)cc3[n+]2[O-])cc1 | 0.77

// moving on: another record for IC50
Output IC50 of COc1ccc2c(c1)[n+]([O-])c(NC(=O)OC(C)C)c(C)[n+]2[O-]
6

###

TEST_METHOD_NOTES: Cytotoxicity against mouse EAC cells in hypoxic condition assessed as cell viability at 5 ug/ml after 2 hrs by trypan blue exclusion assay
Format: functional
SETTINGS: Ehrlich, read-out: Activity
# Lookup of reported viability at 5 µg/mL keyed by entry

Known viability at 5 µg/mL results, listed for orientation:
Cc1c(C(=O)N=[N+]=[N-])[n+]([O-])c2cc(Cl)ccc2[n+]1[O-] | 92.6%
CCOc1ccc(/N=C/c2c(-c3ccccc3)[n+]([O-])c3ccc(OC)cc3[n+]2[O-])cc1 | 97%
CC(=O)N(C(C)=O)c1c(C#N)[n+]([O-])c2cc(Cl)ccc2[n+]1[O-] | 30.3%
Cc1c(NC(=O)OC(C)C)[n+]([O-])c2cc(Cl)ccc2[n+]1[O-] | 98.3%
COc1ccc2c(c1)[n+]([O-])c(NC(=O)OC(C)C)c(C)[n+]2[O-] | 91.9%

Output viability at 5 µg/mL of CCOc1ccc(NCc2nc3cc(OC)ccc3[n+]([O-])c2-c2ccccc2)cc1
99%

Output viability at 5 µg/mL of COc1ccc2c(c1)[n+]([O-])c(C(=O)N=[N+]=[N-])c(C)[n+]2[O-]
81.1%

Output viability at 5 µg/mL of COc1ccc(NC(=O)Nc2c(C)[n+]([O-])c3ccc(Cl)cc3[n+]2[O-])cc1
73.3%

Output viability at 5 µg/mL of N#Cc1c(N)[n+]([O-])c2ccc(Cl)cc2[n+]1[O-]
87.8%

Output viability at 5 µg/mL of CNc1c(C#N)[n+]([O-])c2cc(Cl)ccc2[n+]1[O-]
96%

###

# Lookup of reported Potency keyed by entry
Test system: Ehrlich
TEST_METHOD_NOTES: Cytotoxicity against mouse EAC cells in hypoxic condition assessed as concentration required for 1% cell survival

Known Potency results, listed for orientation:
N#Cc1c(N)[n+]([O-])c2ccc(Cl)cc2[n+]1[O-] | > 100 µg/mL
CCOc1ccc(/N=C/c2c(-c3ccccc3)[n+]([O-])c3ccc(OC)cc3[n+]2[O-])cc1 | > 100 µg/mL
CNc1c(C#N)[n+]([O-])c2cc(Cl)ccc2[n+]1[O-] | > 100 µg/mL

Output Potency of CC(=O)N(C(C)=O)c1c(C#N)[n+]([O-])c2cc(Cl)ccc2[n+]1[O-]
22 µg/mL

Output Potency of Cc1c(C(=O)N=[N+]=[N-])[n+]([O-])c2cc(Cl)ccc2[n+]1[O-]
> 100 µg/mL

Output Potency of COc1ccc(NC(=O)Nc2c(C)[n+]([O-])c3ccc(Cl)cc3[n+]2[O-])cc1
> 100 µg/mL

Output Potency of COc1ccc2c(c1)[n+]([O-])c(NC(=O)OC(C)C)c(C)[n+]2[O-]
> 100 µg/mL

Output Potency of COc1ccc2c(c1)[n+]([O-])c(C(=O)N=[N+]=[N-])c(C)[n+]2[O-]
90 µg/mL

Output Potency of CCOc1ccc(NCc2nc3cc(OC)ccc3[n+]([O-])c2-c2ccccc2)cc1
> 100 µg/mL

###

System: HepG2
TEST_METHOD_NOTES: Growth inhibition of human HepG2 cells after 48 hrs by SRB assay
Assay type: functional, cell-based
SETTINGS: HepG2, 48 h
MEASURED_ENDPOINT: IC50 (µg/mL)
Dear colleague, please return just the value in µg/mL, with no unit written.

Known IC50 results, listed for orientation:
COc1ccc(NC(=O)Nc2c(C)[n+]([O-])c3ccc(Cl)cc3[n+]2[O-])cc1 | 0.5
Nc1n[n+]([O-])c2ccccc2[n+]1[O-] [TIRAPAZAMINE] | 56.6
CCOc1ccc(NCc2nc3cc(OC)ccc3[n+]([O-])c2-c2ccccc2)cc1 | 4.95
CNc1c(C#N)[n+]([O-])c2cc(Cl)ccc2[n+]1[O-] | 4.75
COc1ccc(NC(=O)Nc2c(C)[n+]([O-])c3ccc(OC)cc3[n+]2[O-])cc1 | 6

// moving on: another record for IC50
Output IC50 of CC(=O)N(C(C)=O)c1c(C#N)[n+]([O-])c2cc(Cl)ccc2[n+]1[O-]
5.69

These measurements were taken from ChEMBL document CHEMBL1177836.
